- PROTOCOL: viability loss with induced miR-34 in A549 – imaging, A549 dox-inducible miR-34, nuclei and caspase counts, primary screen (AID 1347080)
- CONDITION_DETAILS: A549 miR-34 inducible, Hoechst nuclei count, 48 h; measured here: total cells without miR-34 induction
Each entry below carries its recorded cell count.
Enter a number only.

>>> observed_value("NC(=O)NC(Cc1ccccc1)C(=O)O (configuration not stated)")
9790

Input COc1cc2ncnc(Nc3ccc(F)c(Cl)c3)c2cc1NC(=O)C=CCN1CCCCC1 . Output cell count: 2960

Reported cell count of O=C(O)c1ccc(-c2ccccc2C(F)(F)F)o1 : 9530

GET /value?item= CC(=O)OCC(=O)[C@]1(O)CC[C@H]2[C@@H]3CCC4=CC(=O)CC[C@]4(C)[C@@H]3C(=O)C[C@@]21C &field=cell count returns 10300

Memo: CCN(CC)CCNC(=O)c1ccc(NS(C)(=O)=O)cc1 , reported cell count: 10100

Lab book: cell count of O=C1c2cccc3c2C(CCC3)CN1C1CN2CCC1CC2 (configuration not stated) noted as 3420

Noted for C[C@]12CCC(=O)C=C1[C@@H]1C[C@@H]1[C@H]1[C@@H]3[C@@H]4C[C@@H]4[C@]4(CCC(=O)O4)[C@@]3(C)CC[C@H]12 : its cell count reads 7200

* * *

- PROTOCOL: MELAS cybrid and Rieske KO viability enhancers – cell-based, MELAS cybrids, Rieske KO mouse fibroblasts, CellTiter-Glo, primary screen (AID 1508586);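 further: z relative to plate mean and SD of compound and empty wells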
- CONDITION_DETAILS: Rieske KO mouse fibroblast survival, low glucose, CellTiter-Glo 72 h
PROPERTY: z-score
Output: the number by itself.

Example entries and their recorded answers appear below.
>>> observed_value("O=C1N[C@@H](Cc2ccccc2)C(=O)N2CCN(C(=O)c3cccs3)C[C@H]12")
-0.046
>>> observed_value("CN(C)CCOc1ccc(-c2nc(-c3ccc4c(c3)CCC4=NO)c(-c3ccncc3)[nH]2)cc1")
0.963
>>> observed_value("CCOc1cc(CC(=O)NC(CC(C)C)c2ccccc2N2CCCCC2)ccc1C(=O)O (configuration not stated)")
0.561
>>> observed_value("Cc1ccc(C(=O)N[C@H]2C[C@H]3C(=O)N[C@@H](Cc4ccc(O)cc4)C(=O)N3C2)cc1F")
-0.468
>>> observed_value("OCC(O)COc1ccc(Cl)cc1 (configuration not stated)")
0.457
>>> observed_value("C=C1C(=O)[C@@]23C(O)[C@H]1CCC2[C@]12CO[C@]3(O)C(O)[C@@H]1C(C)(C)CCC2O (some centres not stated)")
-0.438
>>> observed_value("O=C1NCC(=O)N2CCCC12 (configuration not stated)")
-0.595
>>> observed_value("COCCCNC(=O)c1nn(C)c2c1CN(C(=O)Cc1c(C)[nH]c3c(F)cccc13)CC2")
-0.829

The recorded z-score for entry COC1C=CC=C(C)C(=O)NC2=CC(=O)C(NCCN(C)C)=C(CC(C)CC(OC)C(O)C(C)C=C(C)C1OC(N)=O)C2=O (configuration not stated) equals -2.5

* * *

# liver cell % of control per entry
- PROTOCOL: liver-stage malaria parasite load reduction – cell-based, known kinase inhibitor set, luminescence, hepatoma host viability (AID 624392);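 further: infected cells incubated roughly two days before readout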
- CONDITION_DETAILS: Plasmodium liver stage in hepatoma cells, luciferase luminescence, concentration not given here; measured here: host liver cell viability
Expressed in %, but write only the number.

Consider NC(=O)Nc1sc(-c2ccccc2)cc1C(N)=O . Its measured liver cell % of control is 111

Record NC(=O)Cc1ccccc1Oc1nccc(-c2c(-c3ccc(F)cc3)ncn2C2CCNCC2)n1 . Reported liver cell % of control: 110

Item: COc1cc(C(=O)NC2CCN(C)CC2)ccc1Nc1ncc2c(n1)N(CCc1ccccc1)CCC(=O)N2C | liver cell % of control: 98.4

Record summary for CCN1CCN(Cc2ccc(NC(=O)c3ccc(C)c(C=Cc4cnc(Nc5cc(N6CCNCC6)nc(C)n5)cn4)c3)cc2C(F)(F)F)CC1 : reported liver cell % of control = 96.8

Documented liver cell % of control of Cc1nc(Nc2cnc(C=Cc3cc(C(=O)Nc4cccc(C(F)(F)F)c4)ccc3C)cn2)cc(N2CCNCC2)n1 : 92.4

Data provenance is PubChem BioAssay.
